PROCEDURE_TEXT: Inhibition of porcine succinate-cytochrome c reductase using succinate and cytochrome c as substrates by spectrophotometric based assay
Design: species or system Sus scrofa
Recorded IC50 determines the label; the label ranges are class 1 = under 1000 nM, class 2 = from 1000 nM up to 2000 nM, class 3 = 2000 nM and over

# input Which category fits this record: `CO/C=C(/C(=O)OC)c1ccccc1Oc1cc(Oc2ccccc2C#N)ncn1`
# output class 1

# input Okay, and `CN(C)S(=O)(=O)n1cnc(S(=O)(=O)Nc2cc(Cl)c(Oc3c(Cl)cc(Cl)cc3Cl)c(Cl)c2)n1` ?
# output class 3

# input What about `O=S(=O)(Nc1cc(Cl)c(Oc2ccc(Cl)cc2Cl)c(Cl)c1)c1ccccc1` ?
# output class 2

# input Similarly, `O=S(=O)(Nc1cc(Cl)c(Oc2c(Cl)cc(Cl)cc2Cl)c(Cl)c1)c1ccc(F)cc1` ?
# output class 1

# input Record: CC(C)CC(C)c1sccc1NC(=O)c1cn(C)nc1C(F)(F)F (centres undefined)
# output class 2

New cases:
# input Tag the class for `O=S(=O)(Nc1ccc(Oc2ccc(Cl)cc2Cl)cc1)c1ccc(Cl)cc1Cl`
# output class 2

# input Continue with `O=[N+]([O-])c1ccc(S(=O)(=O)Nc2ccc(Oc3ccc(Cl)cc3Cl)c(Cl)c2)cc1`
# output class 3

# input Another: `O=S(=O)(Nc1cc(Cl)c(Oc2c(Cl)cc(Cl)cc2Cl)c(Cl)c1)c1c(Cl)cc(Cl)cc1Cl`
# output class 1

# input Same again, this time with `Cc1cc(C)c(Oc2c(C)cc(NS(=O)(=O)c3ccccc3)cc2C)c(C)c1`
# output class 3

# input Another: `O=S(=O)(Nc1cc(F)c(Oc2c(F)cc(F)cc2F)c(F)c1)c1ccccc1`
# output class 3

----------
Species: Sus scrofa
PROCEDURE_TEXT: Inhibition of porcine heart succinate-cytochrome c reductase at 10 uM using succinate and cytochrome c as substrates by spectrophotometric based assay relative to control
# label = True if inhibition >= 9% else False

Past entries and their recorded results:
# input Decide: inhibition of `O=S(=O)(Nc1ccc(Oc2c(Cl)cc(Cl)cc2Cl)c(Cl)c1)c1ccccc1` >= 9%?
# output True

# input Entry `O=S(=O)(Nc1ccc(Oc2ccc3ccccc3c2)c(Cl)c1)c1ccccc1` please
# output True

# input Repeat for the following molecule: `O=S(=O)(Nc1cc(Cl)c(Oc2ccc3ccccc3c2)c(Cl)c1)c1ccccc1`
# output True

# input Please answer likewise for `O=S(=O)(Nc1ccc(Oc2ccccc2)cc1)c1ccccc1`
# output True

# ---- query molecule ----
# input Textbook exercise: given the entry `Cc1cc(C)c(Oc2c(C)cc(NS(=O)(=O)c3ccccc3)cc2C)c(C)c1` , state whether its inhibition is greater than or equal to 9%.
# output False

----------
PROCEDURE_TEXT: Inhibition of porcine succinate-ubiquinone oxidoreductase using succinate and 2,6-dichloroindophenol as substrates by spectrophotometric based assay
Set-up: species or system Sus scrofa
PARAMETER_MEASURED: pIC50
# log scale: pIC50 equals minus log10 of the concentration in mol/L

# input // pIC50 lookup, key: `O=S(=O)(Nc1cc(F)c(Oc2c(F)cc(F)cc2F)c(F)c1)c1ccccc1`
# output 5.69

# input And the next one, `O=S(=O)(Nc1cc(Cl)c(Oc2c(Cl)cc(Cl)cc2Cl)c(Cl)c1)c1ccccc1` ?
# output 6.29

# input Can you handle CC(C)CC(C)c1sccc1NC(=O)c1cn(C)nc1C(F)(F)F (centres undefined) [PENTHIOPYRAD] next?
# output 5.92

# input Now consider `CN(C)S(=O)(=O)n1cnc(S(=O)(=O)Nc2cc(Cl)c(Oc3c(Cl)cc(Cl)cc3Cl)c(Cl)c2)n1` and answer again.
# output 6.30
